Biological target: human LPA1 (Homo sapiens, UniProt Q92633)
Construct: expressed in transfected cells; host or cells: Chinese hamster ovary (CHO) cells
Sequence (Q92633 whole entry): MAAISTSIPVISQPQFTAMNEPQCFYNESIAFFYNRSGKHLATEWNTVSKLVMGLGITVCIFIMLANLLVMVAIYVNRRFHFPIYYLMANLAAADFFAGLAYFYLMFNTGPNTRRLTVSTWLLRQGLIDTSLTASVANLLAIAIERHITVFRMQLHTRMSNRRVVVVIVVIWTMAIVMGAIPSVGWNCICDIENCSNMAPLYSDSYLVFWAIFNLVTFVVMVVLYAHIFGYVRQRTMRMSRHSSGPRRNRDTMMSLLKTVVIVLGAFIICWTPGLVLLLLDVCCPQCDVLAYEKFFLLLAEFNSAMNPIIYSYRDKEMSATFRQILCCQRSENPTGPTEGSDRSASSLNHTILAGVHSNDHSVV
Assay: LPA1 functional antagonist assay (LPA-induced calcium flux in CHO cells overexpressing human LPA1)
Type: cell-based
Settings: inhibition of calcium flux induced by 10 nM LPA, CHO cells overexpressing human LPA1; read-out: hLPA1 IC50
# if measured IC50 < 100 nM: label 1  # else: label 0

Cc1nc(-c2nnn(C)c2CNc2nc(C(C)(C)C)ns2)ccc1O[C@H]1CCC[C@H](C(=O)O)C1 [Example 3]; label 0

-- ask # strict comparison: is reported IC50 < 100 nM? input = Cc1nc(-c2nnn(C)c2CNc2noc(COC(C)C)n2)ccc1O[C@H]1CCC[C@H](C(=O)O)C1 [Example 145]
-- reply label 1

-- ask Please let me know if Cc1nc(-c2nnn(C)c2CNc2nc(CCC(C)C)no2)ccc1O[C@H]1CCC[C@H](C(=O)O)C1 [Example 158] shows IC50 below 100 nM.
-- reply label 1

-- ask is_below(IC50, 100 nM) for Cc1nc(-c2nnn(C)c2Cn2nnnc2-c2ccc(F)cc2)ccc1O[C@H]1CCC[C@H](C(=O)O)C1 [Example 323] ?
-- reply label 0

* * *

Biological target: human LPA1 (Homo sapiens, UniProt Q92633)
Construct: expressed in transfected cells; host or cells: Chinese hamster ovary (CHO) cells
Assay: LPA1 functional antagonist assay (LPA-induced calcium flux in CHO cells overexpressing human LPA1)
Format: cell-based
Conditions: inhibition of calcium flux induced by 10 nM LPA, CHO cells overexpressing human LPA1; read-out: hLPA1 IC50
Catalogue of pIC50 values
When answering, recall that pIC50 equals minus log10 of the concentration in mol/L, and write that number alone.

Cc1nc(-c2nnn(C)c2Cn2nnc(OCC3CC3)n2)ccc1O[C@H]1CCC[C@H](C(=O)O)C1; 7.59
CCCn1cnc(NCc2c(-c3ccc(O[C@H]4CCC[C@H](C(=O)O)C4)c(C)n3)nnn2C)n1; 6.51
CC(C)CCc1nc(NCc2c(-c3ccc(O[C@H]4CCC[C@H](C(=O)O)C4)cn3)nnn2C)no1; 7.03
Cc1nc(-c2nnn(C)c2CNc2nc3c(s2)CCCC3)ccc1O[C@H]1CCC[C@H](C(=O)O)C1; 5.92
COc1nc(NCc2c(-c3ccc(O[C@H]4CCC[C@H](C(=O)O)C4)c(C)n3)nnn2C)ns1; 5.95
CCCc1nnc(NCc2c(-c3ccc(O[C@H]4CCC[C@H](C(=O)O)C4)c(C)n3)nnn2C)o1; 6.40

-- ask Please look at this compound and report its pIC50: Cc1nc(-c2nnn(C)c2CNc2noc(CC3CC3)n2)ccc1O[C@H]1CCC[C@H](C(=O)O)C1
-- reply 7.82

-- ask Output measured pIC50 for this item: Cc1nc(-c2nnn(C)c2CNc2nc(C3CCC3)cs2)ccc1O[C@H]1CCC[C@H](C(=O)O)C1
-- reply 7.89

-- ask Entry CCC(C)Cc1nc(NCc2c(-c3ccc(O[C@H]4CCC[C@H](C(=O)O)C4)c(C)n3)nnn2C)no1 (stereo partly drawn) needs its pIC50 filled in; supply it.
-- reply 7.74

-- ask Please report pIC50 for the following compound: Cc1nc(-c2nnn(C)c2Cn2nnc([C@H]3CCCO3)n2)ccc1O[C@H]1CCC[C@H](C(=O)O)C1
-- reply 7.04

-- ask Specify measured pIC50 for Cn1nnc(-c2ccc(O[C@H]3CCC[C@H](C(=O)O)C3)cn2)c1CNc1noc(CCC2CCC2)n1 .
-- reply 7.48

-- ask Using the record for Cc1nc(-c2nnn(C)c2Cn2nnc(-c3ccccc3)n2)ccc1O[C@H]1CCC[C@H](C(=O)O)C1 , state its measured pIC50.
-- reply 7.38

-- ask Return pIC50 (reported value) for this compound: Cc1nc(-c2nnn(C)c2Cn2nnc(OC3CCC3)n2)ccc1O[C@H]1CCC[C@H](C(=O)O)C1
-- reply 7.32

-- ask For the compound Cc1cc(C)n(Cc2nnn(Cc3c(-c4ccc(O[C@H]5CCC[C@H](C(=O)O)C5)c(C)n4)nnn3C)n2)n1 , give its measured pIC50 value.
-- reply 6.02

-- ask Quote pIC50 reported for Cc1nc(-c2nnn(C)c2CNc2cnn(C3CCCCC3)n2)ccc1O[C@H]1CCC[C@H](C(=O)O)C1 please.
-- reply 7.00

* * *

// reported pIC50 per item
Biological target: human LPA1 (Homo sapiens, UniProt Q92633)
Construct: expressed in transfected cells; host or cells: Chinese hamster ovary (CHO) cells
Test: LPA1 functional antagonist assay (LPA-induced calcium flux in CHO cells overexpressing human LPA1)
Format: cell-based
Conditions: inhibition of calcium flux induced by 10 nM LPA, CHO cells overexpressing human LPA1; read-out: hLPA1 IC50
# pIC50: negative log10 of molar concentration; output just the value

Cc1nc(-c2nnn(C)c2Cc2nc(CC3CC3)no2)ccc1O[C@H]1CCC[C@H](C(=O)O)C1; 7.40
Cn1nnc(-c2ccc(O[C@H]3CCC[C@H](C(=O)O)C3)cn2)c1Cn1nnc(C2CCCC2)n1; 7.51
Cc1nc(-c2nnn(C)c2Cn2nnnc2Cc2ccc(Cl)cc2)ccc1O[C@H]1CCC[C@H](C(=O)O)C1; 6.78
CCCCc1nc(NCc2c(-c3ccc(O[C@H]4CCC[C@H](C(=O)O)C4)cn3)nnn2C)no1; 6.91

-- ask Hello, please tell me recorded pIC50 for this one: Cc1nc(-c2nnn(C)c2CNc2noc(CC3CC3)n2)c(F)cc1O[C@H]1CCC[C@H](C(=O)O)C1
-- reply 6.63

-- ask # return recorded pIC50 for entry Cc1nc(-c2nnn(C)c2Cn2nc(C3CCCC3)oc2=N)ccc1O[C@H]1CCC[C@H](C(=O)O)C1
-- reply 6.64

-- ask Please indicate pIC50 recorded for CCCCc1nnc(NCc2c(-c3ccc(O[C@H]4CCC[C@H](C(=O)O)C4)c(C)n3)nnn2C)o1
-- reply 6.53

* * *

Target: human LPA1 (Homo sapiens, UniProt Q92633)
Construct: expressed in transfected cells; host or cells: Chinese hamster ovary (CHO) cells
Assay: LPA1 functional antagonist assay (LPA-induced calcium flux in CHO cells overexpressing human LPA1)
Type: cell-based
Settings: inhibition of calcium flux induced by 10 nM LPA, CHO cells overexpressing human LPA1; read-out: hLPA1 IC50
Where a name gives a salt, the structure may show the parent alone.
Define the label as true when IC50 is strictly less than 80 nM and as false in all remaining cases.

Examples from the recorded data:
CCc1nc(N(C)Cc2c(-c3ccc(O[C@H]4CCC[C@H](C(=O)O)C4)c(C)n3)nnn2C)no1 [Example 224]; false
Cc1nc(-c2nnn(C)c2CNc2nc(Cc3ccccc3)no2)ccc1O[C@H]1CCC[C@H](C(=O)O)C1 [Example 63]; true
Cc1sc(NCc2c(-c3ccc(O[C@H]4CCC[C@H](C(=O)O)C4)cn3)nnn2C)nc1-c1ccccn1 [Example 98]; false
Cc1nc(-c2nnn(C)c2CNc2cnn(-c3ccc(F)cc3)n2)ccc1O[C@H]1CCC[C@H](C(=O)O)C1 [Example 33]; false
Cc1nc(-c2nnn(C)c2CNc2noc(COC3CCC3)n2)ccc1O[C@H]1CCC[C@H](C(=O)O)C1 [Example 283, TFA salt]; true

-- ask Lab log: compare recorded IC50 with 80 nM; is it strictly lower for Cc1nc(-c2nnn(C)c2Cc2noc(CC3CC3)n2)ccc1O[C@H]1CCC[C@H](C(=O)O)C1 [Example 228] ?
-- reply true

-- ask Hello, I'm reviewing records and need to know if IC50 of Cc1nc(-c2nnn(C)c2COc2ncn(-c3ccccc3)n2)ccc1O[C@H]1CCC[C@H](C(=O)O)C1 [Example 115] is below 80 nM. Could you check?
-- reply true

* * *

Target: human LPA1 (Homo sapiens)
Construct: expressed in transfected cells; host or cells: Chinese hamster ovary (CHO) cells
Assay: LPA1 functional antagonist assay (LPA-induced calcium flux in CHO cells overexpressing human LPA1)
Format: cell-based
Conditions: inhibition of calcium flux induced by 10 nM LPA, CHO cells overexpressing human LPA1; read-out: hLPA1 IC50
value-type: IC50

CCOc1nc(NCc2c(-c3ccc(O[C@H]4CCC[C@H](C(=O)O)C4)c(C)n3)nnn2C)ns1 [Example 5]; 28 nM
Cc1nc(-c2nnn(C)c2CNc2ncn(-c3ccc(F)cc3)n2)ccc1O[C@H]1CCC[C@H](C(=O)O)C1 [Example 39]; 61 nM
Cc1nc(-c2nnn(C)c2CNc2ncn(C(C)C)n2)ccc1O[C@H]1CCC[C@H](C(=O)O)C1 [Example 126]; 1490 nM

In the following, a different compound is considered.
-- ask Find the measured IC50 of Cn1nnc(-c2ccc(O[C@H]3CCC[C@H](C(=O)O)C3)c(C#N)n2)c1Cn1cc(Cc2ccccc2)nn1 [Example 91] and report it.
-- reply 109 nM

* * *

Target: human LPA1 (Homo sapiens, UniProt Q92633)
Construct: expressed in transfected cells; host or cells: Chinese hamster ovary (CHO) cells
Test: LPA1 functional antagonist assay (LPA-induced calcium flux in CHO cells overexpressing human LPA1)
Assay type: cell-based
Details: inhibition of calcium flux induced by 10 nM LPA, CHO cells overexpressing human LPA1; read-out: hLPA1 IC50
value-type: pIC50
pIC50 (log units): -log10 of the concentration in mol/L.

Cc1nc(-c2nnn(C)c2CNc2ncn(C3CCCCC3)n2)ccc1O[C@H]1CCC[C@H](C(=O)O)C1; 6.83

-- ask Tell me pIC50 reported for Cc1nc(-c2nnn(C)c2Cn2nncc2C2CC2)ccc1O[C@H]1CCC[C@H](C(=O)O)C1
-- reply 6.52
